# study target: human Nav1.8 (Homo sapiens, UniProt Q9Y5Y9)
# Sequence (Q9Y5Y9 whole entry): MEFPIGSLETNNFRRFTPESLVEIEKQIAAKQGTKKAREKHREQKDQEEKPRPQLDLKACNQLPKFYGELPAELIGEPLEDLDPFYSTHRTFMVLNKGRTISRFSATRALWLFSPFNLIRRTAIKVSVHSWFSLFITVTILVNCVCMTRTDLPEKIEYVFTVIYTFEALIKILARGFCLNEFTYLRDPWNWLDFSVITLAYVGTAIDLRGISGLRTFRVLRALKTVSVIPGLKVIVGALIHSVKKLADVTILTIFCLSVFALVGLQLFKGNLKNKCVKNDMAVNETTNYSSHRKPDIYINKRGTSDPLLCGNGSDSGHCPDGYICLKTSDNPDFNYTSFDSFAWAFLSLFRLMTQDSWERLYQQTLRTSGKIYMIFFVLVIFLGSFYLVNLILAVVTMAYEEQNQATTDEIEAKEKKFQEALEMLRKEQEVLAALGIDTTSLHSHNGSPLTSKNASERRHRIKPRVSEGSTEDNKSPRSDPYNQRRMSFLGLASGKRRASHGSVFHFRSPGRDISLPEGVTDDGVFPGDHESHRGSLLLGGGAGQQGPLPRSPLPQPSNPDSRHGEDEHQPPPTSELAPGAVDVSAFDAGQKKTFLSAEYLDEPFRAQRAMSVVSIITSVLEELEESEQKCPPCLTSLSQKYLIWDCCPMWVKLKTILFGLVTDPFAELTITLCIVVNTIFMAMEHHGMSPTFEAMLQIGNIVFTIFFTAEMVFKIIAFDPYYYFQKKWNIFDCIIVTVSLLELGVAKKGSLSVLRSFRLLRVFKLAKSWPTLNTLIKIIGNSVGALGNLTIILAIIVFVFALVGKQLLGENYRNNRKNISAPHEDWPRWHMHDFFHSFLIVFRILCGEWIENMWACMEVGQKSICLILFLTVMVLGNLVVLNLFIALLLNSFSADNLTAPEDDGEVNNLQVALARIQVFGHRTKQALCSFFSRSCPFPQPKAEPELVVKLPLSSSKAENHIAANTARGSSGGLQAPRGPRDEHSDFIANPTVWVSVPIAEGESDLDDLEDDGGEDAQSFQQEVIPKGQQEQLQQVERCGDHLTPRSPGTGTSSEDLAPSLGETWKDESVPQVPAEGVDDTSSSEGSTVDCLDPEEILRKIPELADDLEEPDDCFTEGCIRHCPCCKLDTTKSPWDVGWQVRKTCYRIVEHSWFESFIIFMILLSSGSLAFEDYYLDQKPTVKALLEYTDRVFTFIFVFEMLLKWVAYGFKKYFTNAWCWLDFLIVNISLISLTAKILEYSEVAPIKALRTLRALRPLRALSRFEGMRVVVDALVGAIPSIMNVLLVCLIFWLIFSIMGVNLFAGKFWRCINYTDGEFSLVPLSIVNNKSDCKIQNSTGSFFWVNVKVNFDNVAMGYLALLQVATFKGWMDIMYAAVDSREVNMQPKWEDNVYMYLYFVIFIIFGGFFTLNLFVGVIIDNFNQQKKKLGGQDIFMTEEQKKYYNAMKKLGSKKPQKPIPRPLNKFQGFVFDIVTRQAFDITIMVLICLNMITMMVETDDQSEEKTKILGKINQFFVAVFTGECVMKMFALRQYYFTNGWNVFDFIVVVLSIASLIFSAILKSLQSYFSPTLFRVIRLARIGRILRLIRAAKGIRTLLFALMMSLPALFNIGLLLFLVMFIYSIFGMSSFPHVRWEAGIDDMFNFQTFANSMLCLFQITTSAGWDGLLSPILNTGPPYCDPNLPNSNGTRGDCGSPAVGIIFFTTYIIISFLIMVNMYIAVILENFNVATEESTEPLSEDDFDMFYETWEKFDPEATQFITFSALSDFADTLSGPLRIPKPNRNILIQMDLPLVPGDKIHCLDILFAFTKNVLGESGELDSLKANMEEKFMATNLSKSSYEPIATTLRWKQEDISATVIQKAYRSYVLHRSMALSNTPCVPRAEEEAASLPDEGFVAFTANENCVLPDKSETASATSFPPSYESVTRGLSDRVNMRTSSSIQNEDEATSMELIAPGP
# experimental protocol: Membrane potential increase-inhibitory action on TTX-resistant Na channels in cells expressing human Nav1.8 gene (deltamethrin stimulation)
experimental readout: pIC50
One number for each entry, as −log10 of the molar value.

Use the examples below as a reference point.
Q: // query pIC50 value for entry "Cn1ccn2c(=O)n(CCCN3[C@@H]4CC[C@H]3C[C@@H](OCc3ccccc3F)C4)c(=O)nc12"
Ans: 6.05

Q: Bench note: what pIC50 did "O=c1n(CCCN2[C@@H]3CC[C@H]2C[C@@H](OCc2ccccc2F)C3)nc2ccccn12" show?
Ans: 6.28

Q: Data request, read-out pIC50, for Cn1c(-c2cocn2)nn(CC(O)CN2[C@@H]3CC[C@H]2C[C@@H](OCc2ccccc2CF)C3)c1=O (stereo partly shown)
Ans: 4.92

Field: next molecule
Q: Entry "Cc1nc(=O)n(C[C@H](F)CN2[C@@H]3CC[C@H]2C[C@@H](OCc2cccc(F)c2)C3)c(=O)n1C" : reported pIC50 = ?
Ans: 5.62
